test system: HOP-92 NSCLC; experiment: NCI tumour cell line growth inhibition, 48 h
quantity: TGI (µM)
Numbers only; they are read as µM.

Query block: Would you mind telling me what TGI value was observed for C/C=C(\C)C(=O)O[C@H]1C=CC(=O)O[C@H]1COC(=O)[C@H](C)O ?
Result block: 21.1

Query block: Bench note: what TGI did Cc1ccc2c3c1[C@@H]1O[C@@H]1c1cccc(c1-3)[C@@H]1O[C@H]21 show?
Result block: 36.8

Query block: Given the entry O=C(CSSCC(=O)OCCS(=O)(=O)Nc1ccc(Br)cc1)OCCS(=O)(=O)Nc1ccc(Br)cc1 , report its measured TGI.
Result block: 51.5

Query block: Would you kindly share the measured TGI for CC1(C)CCC(C)(C)c2cc(NC(=O)c3ccc(C(=O)O)cc3)ccc21 ?
Result block: 64.1

###

system: OVCAR-4 ovarian; test: NCI tumour cell line growth inhibition, 48 h
Label 1 when TGI is at or above 20 µM; otherwise label 0.

Query block: Given the entry O=c1cccc2n1CC1CNC[C@H]2C1 , answer whether its TGI meets or surpasses 20 µM.
Result block: 1

Query block: For this compound, is measured TGI 20 µM or higher? NC(N)=NS(=O)(=O)c1ccc(NC(=O)c2cccc3c(N)c4ccccc4nc23)cc1
Result block: 1

Query block: Test whether the compound O=C1CS(=O)(=O)C(c2cccc(Oc3ccccc3)c2)N1C1CC1 (stereo unspecified) records TGI of 20 µM or higher.
Result block: 1

Query block: // inclusive: TGI at least 20 µM? input: COP(=O)(OC)[C@H](O)[C@H]1C[C@@H]1c1ccccc1
Result block: 1

Query block: Check if TGI >= 20 µM (inclusive). Item: O=c1c(-c2ccccc2)c(SCCN2CCOCC2)n(-c2ccccc2)c(=S)n1-c1ccccc1
Result block: 1

Query block: Is TGI at least 20 µM? Consider CC(C)(C)[Si](C)(C)OCC1OC(n2ccc(=O)[nH]c2=O)C(O[Si](C)(C)C(C)(C)C)[C@]12O[C@@H]2CO (stereo partly specified)
Result block: 1

Query block: Threshold query (TGI >= 20 µM) on CC(C)c1ccc(/C=C/c2cc(C(=O)NNC(=O)NC3CCCCC3)nc(=S)[nH]2)cc1
Result block: 1

Query block: Check if TGI >= 20 µM (inclusive). Item: CCCCCCCCCCCCSC(=S)c1c(C)[nH]n(CCCCCCCCCCCC)c1=O
Result block: 1

Query block: Assess whether reported TGI for O=C1C=C(c2ccccc2)O/C1=C\C(=O)c1ccc(Cl)cc1 sits at 20 µM or higher.
Result block: 1

Query block: Does the reported TGI for O=c1[nH]c2c(c(=O)[nH]1)C(c1ccc([N+](=O)[O-])cc1)c1c([nH]c(=O)[nH]c1=O)O2 fall at or above the 20 µM mark?
Result block: 1

Query block: Evaluate C/C=C(\C)C(=O)O[C@H]1C=CC(=O)O[C@H]1COC(=O)[C@H](C)O : TGI at minimum 20 µM?
Result block: 1

Query block: Does TGI meet or surpass 20 µM for O=[N+]([O-])c1oc2ccc3ccccc3c2c1CCO ?
Result block: 0

Query block: # bool: TGI of CCCCCCCCCCCCC(Br)C(C)=O (stereo unspecified) >= 20 µM
Result block: 1

Query block: Check the entry COc1ccc(-c2nc3c(C(=O)NCCN(C)C)cccc3c3ccccc23)cc1 : does TGI equal or exceed 20 µM?
Result block: 0

Query block: Quick check, TGI >= 20 µM? COc1ccc(-c2[nH]nc(N)c2-c2cc(OC)c(OC)c(OC)c2)cc1
Result block: 1

Query block: Has Nc1nn(C(=O)Nc2c(F)cccc2F)c2ccccc12 a recorded TGI greater than or equal to 20 µM?
Result block: 1

Query block: Quick check, TGI >= 20 µM? C=C1CC2(CCS(=O)(=O)c3ccccc32)OC1=O (stereo unspecified)
Result block: 1

Query block: Given CCNc1nnc(-c2ccccc2Nc2ccccc2-c2nnc(NCC)s2)s1 , state whether its TGI is at least 20 µM.
Result block: 1

Query block: Please indicate if the recorded TGI for N#CC1=C(N)Oc2c(sc3c(Br)cccc23)C1c1ccc(Cl)cc1 (stereo unspecified) meets or exceeds 20 µM.
Result block: 0

Query block: Decide: is the reported value of TGI for Cc1ccsc1C(=S)Nc1ccc(Cl)c(/C=N/OC(C)C)c1 equal to or greater than 20 µM?
Result block: 1

###

tested on: UACC-62 melanoma; assay: NCI tumour cell line growth inhibition, 48 h
quantity: GI50

Query block: Query: GI50; subject: COC(=O)c1oc2c(C(=O)/C=C/c3ccc(OC)cc3)c(OCCN3CCOCC3)ccc2c1C
Result block: 1.55 µM

Query block: Recorded GI50 of CN(C)c1ccccc1[CH2][Ga]([Cl])[CH2]c1ccccc1N(C)C , please.
Result block: 0.717 µM

Query block: Look at this compound and give its reported GI50. CNC(=O)c1cccc(C#Cc2cncnc2Nc2ccc(OCc3cccc(F)c3)c(Cl)c2)c1
Result block: 16 µM

Query block: Given the compound O=S(=O)(NCCCNc1cc(-c2cn(-c3ccccc3)nc2-c2cccc(O)c2)ccn1)c1ccc(Br)cc1 , what is its reported GI50?
Result block: 1.57 µM

Query block: Name the reported GI50 value associated with the compound Cn1cc(C2=C(c3cn(CCCCCO)c4ccccc34)C(=O)NC2=O)c2ccccc21
Result block: 3.99 µM

###

For each entry below, report its TGI value.
tested on: NCI-H522 lung; experiment: NCI tumour cell line growth inhibition, 48 h
Where a SMILES comes first, the peptide text is derived from it. The star is where a group is joined. Boc = CC(C)(C)OC(=O)*; Bn = c1ccc(C*)cc1

Query block: I would be grateful if you could share the reported TGI for CC(=O)NC1COC(COC(=O)CCCCCCCCCCNC(=O)c2ccc([N+](=O)[O-])c3c(=O)c4ccccc4[nH]c23)C(O)C1OC(C)C(=O)NC(C(=O)NC(CCC(N)=O)C(=O)OCc1ccccc1)C(C)C (configuration not stated) .
Result block: 35.4 µM

Query block: Report TGI for C=C1CC2C3C=C(C)C4=CC(=O)CC[C@]4(C)C3CC[C@]2(C)[C@@]1(OC(C)=O)C(C)=O (some centres not stated) please.
Result block: > 100 µM

Query block: Please report the recorded TGI for CNC(=O)C(CC(C)C)NC(=O)C(C)NC(=O)C(Cc1ccc(OCc2ccccc2)cc1)NC(=O)C(COCc1ccccc1)NC(=O)OC(C)(C)C (configuration not stated) (Boc-S(Bn)Y(Bn)AL-NHMe; configuration not given here) .
Result block: 37.4 µM

Query block: Recorded TGI for O=C(CSSCC(=O)OCCS(=O)(=O)Nc1ccc(Br)cc1)OCCS(=O)(=O)Nc1ccc(Br)cc1 , please?
Result block: 24 µM

Query block: I would be grateful if you could share the reported TGI for O=C(Cc1nc2ccc([N+](=O)[O-])cc2[nH]c1=O)C(=O)Nc1ccccc1[N+](=O)[O-] .
Result block: > 100 µM

Query block: Quick one: TGI for CC(=O)N[C@@H](Cc1ccc(OP(=O)(O)O)cc1)C(=O)N[C@H]1CCC(=O)N2CCC[C@@H](C(=O)NCc3ccccc3)N2C1=O ?
Result block: > 25 µM

Query block: I would be grateful if you could share the reported TGI for CN(C)CC1CCC/C(=C\c2ccccc2)C1=O (configuration not stated) .
Result block: 2.95 µM

###

test system: SN12C renal; test: NCI tumour cell line growth inhibition, 48 h
quantity: TGI

Query block: Form field: reported TGI of CN(C)CCS(=O)(=O)Nc1cc(-c2ccc3ncc(C#N)c(Nc4ccc(F)c(Cl)c4)c3c2)cnc1Cl
Result block: > 100 µM

Query block: Could you share which TGI value was measured for Cc1cc(S(=O)(=O)NC(=NCCc2ccccc2)NN)c(S)cc1Cl ?
Result block: > 100 µM

Query block: # get_value(readout='TGI', item= Cc1ccc(C(=O)Oc2ccc(/C=C3\CCC/C(=C\c4ccc(OC(=O)c5ccc(C)cc5)cc4)C3=O)cc2)cc1 )
Result block: > 100 µM

Query block: Find the recorded TGI belonging to N#Cc1c(N/N=C\c2ccc(Cl)cc2)nc(N)nc1N1CCOCC1 and report it.
Result block: > 100 µM

Query block: Record request: TGI value, item Cn1cc(-c2nnc(-c3ccc(Cl)cc3)[nH]c2=O)c2ccccc21
Result block: > 64 µM

Query block: Can you look up the measured TGI of NC(=O)CCC(NC(=O)c1c2ccccc2nc2ccccc12)C(=O)O (configuration not stated) for me?
Result block: > 100 µM

Query block: Return reported TGI; argument: Cc1ccccc1Nc1nc(NNC(=O)Cc2ccccc2)nc(NNC(=O)c2ccncc2)n1
Result block: > 10 µM

Query block: Record request: TGI value, item O=C(O)Cc1ccc(N=Nc2c(O)c(C(=O)O)cc3ccccc23)cc1
Result block: > 100 µM

Query block: Would you kindly share the measured TGI for COc1ccc(OC)c(/C=C/c2ccnc3ccccc23)c1 ?
Result block: 17.6 µM

Query block: Form field: reported TGI of C/C(=C\C(=N\NC(=N)N)c1ccccc1)c1ccccc1
Result block: 3.09 µM

Query block: May I ask what TGI has been recorded for O=C1[C@@H](O)[C@@H]2CCCC[C@@]23CCCN13 ?
Result block: > 100 µM

Query block: Quick one: TGI of CC1=C(C(=O)CC(=O)C(=O)Nc2ccc(C)c(C)c2)Sc2ccccc2N1 ?
Result block: > 100 µM

Query block: # get_value(readout='TGI', item= O=C(O)C12CCC(CC1=O)C2 (configuration not stated) )
Result block: > 100 µM

Query block: Given the entry CC(=O)OCCCC#CC#Cc1cccc(=O)o1 , report its measured TGI.
Result block: 39.7 µM

Query block: For Cc1c2c(nn1-c1ccc(S(=O)(=O)NC(=S)NC(=O)c3ccccc3)cc1)-c1ccccc1CC2 , what is its reported TGI?
Result block: > 100 µM

Query block: Fill blank: measured TGI of the molecule O=C1C(c2ccccc2)=C(c2ccccc2)C(c2ccc(Sc3ccc(C4=C(c5ccccc5)C(=O)C(c5ccccc5)=C4c4ccccc4)cc3)cc2)=C1c1ccccc1 is ____.
Result block: > 100 µM

Query block: What measured TGI goes with COC(=O)c1ccc2c(c1)sc1nc(-c3ccc(OC)cc3)cn12 ?
Result block: > 100 µM

Query block: Could you tell me which TGI is on file for Cc1cccc(C)c1N=Nc1ccc(O)c(CN(C)C)c1 ?
Result block: > 100 µM

Query block: Sample O=C(O)CCN(CCCN(CCC(=O)O)CCC(=O)O)CCC(=O)O — what was its TGI?
Result block: > 100 µM

Query block: Recorded TGI for C=C1c2nc3ccccc3n2C=C(c2ccc(Cl)cc2)N1c1ccc(OCCN2CCCCC2)cc1 , please?
Result block: > 45 µM

Query block: What does the record list as TGI for C/C(=N/O)c1sc(-c2nc(C)c(/C(C)=N\O)s2)nc1C ?
Result block: > 100 µM

Query block: Query (molecule): COC(=O)C1[C@H](c2ccc3c(c2)OCO3)OC(=O)[C@]1(C(=O)OC)C(=O)c1ccc(OC)c(OC)c1 (some centres not stated) ; field requested: TGI
Result block: > 100 µM

Query block: I am curious: what TGI value has been reported for CN(C)C=Nc1c(I)cc(I)c(CCC(=O)O)c1I ?
Result block: > 100 µM

Query block: Look up TGI for this molecule: CN(/N=C\c1ccnc2ccccc12)c1ccccc1
Result block: > 100 µM

Query block: Quick check: TGI of COc1ccc(/C=C2\CCC(CCN3CCOCC3)C2=O)cc1 (configuration not stated) ?
Result block: > 100 µM

Query block: # query: TGI of entry COC(=O)[C@@H](C)C[C@H](Cc1ccccc1)NC(=O)c1csc([C@@H](C[C@H](C(C)C)N(C)C(=O)[C@@H](NC(=O)[C@H]2CCCN2C)C2CC2)OC(C)=O)n1
Result block: > 25 µM

Query block: Please give the measured TGI for this molecule: N#CCc1nnc(N)o1
Result block: > 100 µM

Query block: What measured TGI goes with COC(=O)c1oc2c(C(=O)/C=C/c3ccc(OC)cc3)c(OCCN3CCOCC3)ccc2c1C ?
Result block: 5.91 µM

Query block: Consider the molecule shown here: Cc1ccsc1C(=S)Nc1ccc(Cl)c(/C=N/OC(C)C)c1 What is its recorded TGI?
Result block: > 100 µM

Query block: GET /values?readout=TGI&item= CC(=Nc1ccc(Cl)c(Cl)c1)c1ccncc1
Result block: > 100 µM

Query block: # query: TGI of entry CC(C)Cn1cnc2c(Cl)nc3ccccc3c21
Result block: > 100 µM

Query block: Look up TGI for this molecule: COC(=O)C(c1ccc(OC)cc1)N1C(=O)[C@@H](NC(=O)c2ccccc2)[C@H]1[C@@H](C)O (some centres not stated)
Result block: > 100 µM

Query block: // TGI lookup, key: [Cu+2].[NH-]C(CC(=O)O)C(=O)O.[NH-]C(CC(=O)O)C(=O)O (configuration not stated)
Result block: > 100 µM

Query block: For C=CCOC(=O)Nc1cccn([C@H](CC(C)C)C(=O)NCCC(C)C)c1=O , what is its reported TGI?
Result block: > 100 µM

Query block: Fill in the blank: the reported TGI of Cc1ccc(C2=Nc3ccccc3S(=O)C(c3ccc4c(c3)OCO4)C2)cc1 (configuration not stated) is ____.
Result block: 33.5 µM

Query block: Looking for the measured TGI of CN1CC2=C(NC(=S)NC2c2ccccc2Cl)/C(=C/c2ccccc2Cl)C1 (configuration not stated) , can you help?
Result block: > 100 µM

Query block: Find the recorded TGI belonging to COC12OCCN(C)C1=CC(=O)C1(C)N=NCC12 (configuration not stated) and report it.
Result block: > 100 µM

Query block: Item under review: O=C(CSSCC(=O)Nc1ccc(Br)cc1)Nc1ccc(Br)cc1 . Reported TGI?
Result block: 30.2 µM

Query block: Fill in: TGI of CC1=CC(=O)N(n2c(Cc3ccc(Cl)cc3)n[nH]c2=O)C1=O is ___
Result block: > 100 µM

Query block: What TGI value was documented for this molecule, O=C(NC(Cc1ccc(Cl)cc1)C(=O)O)c1ccc(I)cc1 (configuration not stated) ?
Result block: > 100 µM

Query block: # TGI lookup, item CC(C)(C)n1c(=O)n2n(c1=O)C1c3cccc4cccc(c34)C2C2c3cccc4cccc(c34)C1n1c(=O)n(C(C)(C)C)c(=O)n12
Result block: > 100 µM

Query block: I am curious: what TGI value has been reported for O=CN1CCC23CC(O)CCC2C1Cc1cc(Oc2nnnn2-c2ccccc2)cc(O)c13 (configuration not stated) ?
Result block: > 100 µM
